Tested on: 186277-243-T-J2-PDC complex spheroid growth
method.notes: Anticancer human tumor 186277-243-T-J2-PDC patient-derived colon adenocarcinoma cell line growth inhibition [AhR]; active = viability on the fitted dose curve at most 10% of control; inactive = the rest
run.conditions: second compound 10 µM; first compound 0.3 µM
Bench note: report the call from active, inactive

Field: example entries. Status: answers known.
compound | label.class
CC(C)CC(NC(=O)C(Cc1ccccc1)NC(=O)c1cnccn1)B(O)O (stereo unspecified) + Cc1cncc(-c2nc(NCCc3c[nH]c4ccccc34)c3ncn(C(C)C)c3n2)c1 | active
CCc1c2c(nc3ccc(O)cc13)-c1cc3c(c(=O)n1C2)COC(=O)[C@]3(O)CC + Cc1cncc(-c2nc(NCCc3c[nH]c4ccccc34)c3ncn(C(C)C)c3n2)c1 | active
CCc1c2c(nc3ccc(O)cc13)-c1cc3c(c(=O)n1C2)COC(=O)[C@]3(O)CC + Cc1ccccc1N=Nc1ccc(NC(=O)c2ccnn2C)c(C)c1 | inactive
CCN(c1cc(-c2ccc(CN3CCOCC3)cc2)cc(C(=O)NCc2c(C)cc(C)[nH]c2=O)c1C)C1CCOCC1 + Cc1ccccc1N=Nc1ccc(NC(=O)c2ccnn2C)c(C)c1 | inactive
CCN(c1cc(-c2ccc(CN3CCOCC3)cc2)cc(C(=O)NCc2c(C)cc(C)[nH]c2=O)c1C)C1CCOCC1 + Cc1cncc(-c2nc(NCCc3c[nH]c4ccccc34)c3ncn(C(C)C)c3n2)c1 | inactive

Let us examine a further case.
Task: Which result was noted for this compound in the test: O=C(C=Cn1cnc(-c2cc(C(F)(F)F)cc(C(F)(F)F)c2)n1)NNc1cnccn1 + Cc1cncc(-c2nc(NCCc3c[nH]c4ccccc34)c3ncn(C(C)C)c3n2)c1
Output: active

====

Tested on: 186277-243-T-J2-PDC complex spheroid growth
method.notes: Anticancer human tumor 186277-243-T-J2-PDC cell line growth inhibition [AhR];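 also: spheroids exposed to compounds for seven days before the viability read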
run.conditions: curve of first compound; second compound 1 µM
Define the label as criterion met when IC50 is strictly less than 200 nM and as criterion not met in all remaining cases.

Field: example entries. Status: answers known.
compound | label.class
COc1cc(C2c3cc4c(cc3C(OC3OC5COC(C)OC5C(O)C3O)C3COC(=O)C23)OCO4)cc(OC)c1O (centres undefined) + CC(CO)NC(=O)c1cc(-c2ccc(Cl)cc2)nn(-c2cnn(C)c2)c1=O | criterion not met
CCc1c2c(nc3ccc(O)cc13)-c1cc3c(c(=O)n1C2)COC(=O)[C@]3(O)CC + Cc1ccccc1N=Nc1ccc(NC(=O)c2ccnn2C)c(C)c1 | criterion met
CCN(c1cc(-c2ccc(CN3CCOCC3)cc2)cc(C(=O)NCc2c(C)cc(C)[nH]c2=O)c1C)C1CCOCC1 + Cc1cncc(-c2nc(NCCc3c[nH]c4ccccc34)c3ncn(C(C)C)c3n2)c1 | criterion not met
O=C(C=Cc1cccc(S(=O)(=O)Nc2ccccc2)c1)NO + CC(CO)NC(=O)c1cc(-c2ccc(Cl)cc2)nn(-c2cnn(C)c2)c1=O | criterion not met
CCc1c2c(nc3ccc(O)cc13)-c1cc3c(c(=O)n1C2)COC(=O)[C@]3(O)CC + Cc1cncc(-c2nc(NCCc3c[nH]c4ccccc34)c3ncn(C(C)C)c3n2)c1 | criterion met
NS(=O)(=O)OCC1CC(n2ccc3c(NC4CCc5ccccc54)ncnc32)CC1O (centres undefined) + CC(CO)NC(=O)c1cc(-c2ccc(Cl)cc2)nn(-c2cnn(C)c2)c1=O | criterion met
Nc1ccccc1NC(=O)c1ccc(CNC(=O)OCc2cccnc2)cc1 + CC(CO)NC(=O)c1cc(-c2ccc(Cl)cc2)nn(-c2cnn(C)c2)c1=O | criterion not met
COc1cc(C2c3cc4c(cc3C(OC3OC5COC(C)OC5C(O)C3O)C3COC(=O)C23)OCO4)cc(OC)c1O (centres undefined) + Cc1cncc(-c2nc(NCCc3c[nH]c4ccccc34)c3ncn(C(C)C)c3n2)c1 | criterion not met
Nc1ncn(C2CC(O)C(CO)O2)c(=O)n1 (centres undefined) + Cc1cncc(-c2nc(NCCc3c[nH]c4ccccc34)c3ncn(C(C)C)c3n2)c1 | criterion not met
CC1COCCN1c1cc(C2(S(C)(=N)=O)CC2)nc(-c2ccnc3[nH]ccc23)n1 (centres undefined) + CC(CO)NC(=O)c1cc(-c2ccc(Cl)cc2)nn(-c2cnn(C)c2)c1=O | criterion not met

Task: Here's an entry: CC(C)CC(NC(=O)C(Cc1ccccc1)NC(=O)c1cnccn1)B(O)O (centres undefined) + Cc1ccccc1N=Nc1ccc(NC(=O)c2ccnn2C)c(C)c1 . Is its IC50 below 200 nM?
Output: criterion met

Task: Here's an entry: CC1COCCN1c1cc(-c2ccnn2C)c2ccnc(-c3ccn[nH]3)c2n1 (centres undefined) + CC(CO)NC(=O)c1cc(-c2ccc(Cl)cc2)nn(-c2cnn(C)c2)c1=O . Is its IC50 below 200 nM?
Output: criterion met

Task: Here's an entry: COc1ccc([C@@H](O)c2cc(-c3ncnc4cc(N5CCOCC5)ccc34)c(F)cc2Cl)nn1 + CC(CO)NC(=O)c1cc(-c2ccc(Cl)cc2)nn(-c2cnn(C)c2)c1=O . Is its IC50 below 200 nM?
Output: criterion not met

Task: Here's an entry: CC1(C)CCC(CN2CCN(c3ccc(C(=O)NS(=O)(=O)c4ccc(NCC5CCOCC5)c([N+](=O)[O-])c4)c(Oc4cnc5[nH]ccc5c4)c3)CC2)=C(c2ccc(Cl)cc2)C1 + Cc1cncc(-c2nc(NCCc3c[nH]c4ccccc34)c3ncn(C(C)C)c3n2)c1 . Is its IC50 below 200 nM?
Output: criterion not met

Task: Here's an entry: COc1cc(Nc2ncc3c(n2)-c2ccc(Cl)cc2C(c2c(F)cccc2OC)=NC3)ccc1C(=O)O + Cc1ccccc1N=Nc1ccc(NC(=O)c2ccnn2C)c(C)c1 . Is its IC50 below 200 nM?
Output: criterion not met

Task: Here's an entry: COc1ccc([C@@H](O)c2cc(-c3ncnc4cc(N5CCOCC5)ccc34)c(F)cc2Cl)nn1 + Cc1ccccc1N=Nc1ccc(NC(=O)c2ccnn2C)c(C)c1 . Is its IC50 below 200 nM?
Output: criterion not met

Task: Here's an entry: Nc1ccn(C2OC(CO)C(O)C2(F)F)c(=O)n1 (centres undefined) + Cc1ccccc1N=Nc1ccc(NC(=O)c2ccnn2C)c(C)c1 . Is its IC50 below 200 nM?
Output: criterion met

Task: Here's an entry: COc1cccc2c1C(=O)c1c(O)c3c(c(O)c1C2=O)CC(O)(C(=O)CO)CC3OC1CC(N)C(O)C(C)O1 (centres undefined) + Cc1ccccc1N=Nc1ccc(NC(=O)c2ccnn2C)c(C)c1 . Is its IC50 below 200 nM?
Output: criterion not met

Task: Here's an entry: NS(=O)(=O)OCC1CC(n2ccc3c(NC4CCc5ccccc54)ncnc32)CC1O (centres undefined) + Cc1ccccc1N=Nc1ccc(NC(=O)c2ccnn2C)c(C)c1 . Is its IC50 below 200 nM?
Output: criterion not met

====

Test system: 186277-243-T-J2-PDC complex spheroid growth
method.notes: Anticancer human tumor 186277-243-T-J2-PDC cell line growth inhibition [AhR];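 also: spheroids exposed to compounds for seven days before the viability read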
run.conditions: curve of first compound; second compound 0.1 µM
parameter.measured: IC50 (nM)
Note: unit nM is implicit; provide only the numeric part.

Look over these answered cases.
compound | IC50 (nM)
COc1cc(C2c3cc4c(cc3C(OC3OC5COC(C)OC5C(O)C3O)C3COC(=O)C23)OCO4)cc(OC)c1O (configuration not stated) + Cc1ccccc1N=Nc1ccc(NC(=O)c2ccnn2C)c(C)c1 | 8920
CC1COCCN1c1cc(-c2ccnn2C)c2ccnc(-c3ccn[nH]3)c2n1 (configuration not stated) + Cc1ccccc1N=Nc1ccc(NC(=O)c2ccnn2C)c(C)c1 | 81.8
COc1cc(C2c3cc4c(cc3C(OC3OC5COC(C)OC5C(O)C3O)C3COC(=O)C23)OCO4)cc(OC)c1O (configuration not stated) + Cc1cncc(-c2nc(NCCc3c[nH]c4ccccc34)c3ncn(C(C)C)c3n2)c1 | 2130
CC(C)CC(NC(=O)C(Cc1ccccc1)NC(=O)c1cnccn1)B(O)O (configuration not stated) + CC(CO)NC(=O)c1cc(-c2ccc(Cl)cc2)nn(-c2cnn(C)c2)c1=O | 5.95
CC1COCCN1c1cc(C2(S(C)(=N)=O)CC2)nc(-c2ccnc3[nH]ccc23)n1 (configuration not stated) + CC(CO)NC(=O)c1cc(-c2ccc(Cl)cc2)nn(-c2cnn(C)c2)c1=O | 885
Nc1ncn(C2CC(O)C(CO)S2)c(=O)n1 (configuration not stated) + CC(CO)NC(=O)c1cc(-c2ccc(Cl)cc2)nn(-c2cnn(C)c2)c1=O | 139

Task: Item under review: O=C(C=Cn1cnc(-c2cc(C(F)(F)F)cc(C(F)(F)F)c2)n1)NNc1cnccn1 + Cc1cncc(-c2nc(NCCc3c[nH]c4ccccc34)c3ncn(C(C)C)c3n2)c1 . Reported IC50?
Output: 430

====

Tested on: 186277-243-T-J2-PDC complex spheroid growth
method.notes: Anticancer human tumor 186277-243-T-J2-PDC cell line growth inhibition [AhR];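 also: spheroids exposed to compounds for seven days before the viability read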;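 as to viability, T/C: luminescent signal used as a stand-in for viable cell amount; 100% = DMSO vehicle control wells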
run.conditions: second compound 1 µM; first compound 1 µM; stronger effect = lower value
parameter.measured: viability, T/C

Look over these answered cases.
compound | viability, T/C
Nc1ccn(C2OC(CO)C(O)C2(F)F)c(=O)n1 (stereo unspecified) + Cc1ccccc1N=Nc1ccc(NC(=O)c2ccnn2C)c(C)c1 | 17%
COc1cccc2c1C(=O)c1c(O)c3c(c(O)c1C2=O)CC(O)(C(=O)CO)CC3OC1CC(N)C(O)C(C)O1 (stereo unspecified) + Cc1ccccc1N=Nc1ccc(NC(=O)c2ccnn2C)c(C)c1 | 4.8%
Nc1ccccc1NC(=O)c1ccc(CNC(=O)OCc2cccnc2)cc1 + CC(CO)NC(=O)c1cc(-c2ccc(Cl)cc2)nn(-c2cnn(C)c2)c1=O | 28.1%
Nc1ncn(C2CC(O)C(CO)O2)c(=O)n1 (stereo unspecified) + CC(CO)NC(=O)c1cc(-c2ccc(Cl)cc2)nn(-c2cnn(C)c2)c1=O | 55.2%
CC1(C)CCC(CN2CCN(c3ccc(C(=O)NS(=O)(=O)c4ccc(NCC5CCOCC5)c([N+](=O)[O-])c4)c(Oc4cnc5[nH]ccc5c4)c3)CC2)=C(c2ccc(Cl)cc2)C1 + Cc1cncc(-c2nc(NCCc3c[nH]c4ccccc34)c3ncn(C(C)C)c3n2)c1 | 97.9%

Task: Item under review: CC1(C)CCC(CN2CCN(c3ccc(C(=O)NS(=O)(=O)c4ccc(NCC5CCOCC5)c([N+](=O)[O-])c4)c(Oc4cnc5[nH]ccc5c4)c3)CC2)=C(c2ccc(Cl)cc2)C1 + Cc1ccccc1N=Nc1ccc(NC(=O)c2ccnn2C)c(C)c1 . Reported viability, T/C?
Output: 98.2%

Task: Item under review: COc1ccc([C@@H](O)c2cc(-c3ncnc4cc(N5CCOCC5)ccc34)c(F)cc2Cl)nn1 + Cc1ccccc1N=Nc1ccc(NC(=O)c2ccnn2C)c(C)c1 . Reported viability, T/C?
Output: 98%

Task: Item under review: COc1cc(Nc2ncc3c(n2)-c2ccc(Cl)cc2C(c2c(F)cccc2OC)=NC3)ccc1C(=O)O + Cc1ccccc1N=Nc1ccc(NC(=O)c2ccnn2C)c(C)c1 . Reported viability, T/C?
Output: 107%
